Source listed as the supplement of paper PMC7877785.

# testMethodNotes: self-splicing fitness, log relative to wild type (ln ratio); higher = more splicing; Tetrahymena group I intron in knt gene, E. coli kanamycin selection, DiMSum; sequences stand for … in CUCUCU…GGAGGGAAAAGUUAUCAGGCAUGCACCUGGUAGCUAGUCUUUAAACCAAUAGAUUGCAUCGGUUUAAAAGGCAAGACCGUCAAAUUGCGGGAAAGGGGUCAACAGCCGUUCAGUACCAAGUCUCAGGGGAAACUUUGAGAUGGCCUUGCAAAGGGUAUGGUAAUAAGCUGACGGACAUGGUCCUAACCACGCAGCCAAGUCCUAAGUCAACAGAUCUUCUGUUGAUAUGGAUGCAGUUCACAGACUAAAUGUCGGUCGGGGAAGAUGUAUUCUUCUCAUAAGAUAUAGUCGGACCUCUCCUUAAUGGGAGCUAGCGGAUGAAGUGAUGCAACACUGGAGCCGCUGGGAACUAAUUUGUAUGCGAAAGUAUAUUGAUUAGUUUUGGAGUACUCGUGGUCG;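 further: selection with 25 µg/mL kanamycin versus none on LB agar overnight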
# measurementSetup: 37 °C
Measured self-splicing fitness (ln), listed per entry for reference.

Answered cases to consult:
GUGAAGCAAUAUUACGUAUG: -1.29
AAAUAGCAAUAUUACGUCCA: -0.327
GUUAAGCAAUAUUACGCAAG: -1.71

Per the record, CUUGAGCAAUAUUACGACUU has self-splicing fitness (ln) of -3.56

Per the record, CAAGAGCAAUAUUACGGUAC has self-splicing fitness (ln) of -2.37

Per the record, AAACAGCAAUAUUACGGUUG has self-splicing fitness (ln) of -0.629

Per the record, CGCGAGCAAUAUUACGAUCG has self-splicing fitness (ln) of -2.66

Per the record, CAUAAGCAAUAUUACGUCCU has self-splicing fitness (ln) of -3.15

Per the record, CAUGAGCAAUAUUACGCGUC has self-splicing fitness (ln) of -2.76

Per the record, AUGAAGCAAUAUUACGCCUC has self-splicing fitness (ln) of -1.19

Per the record, AACCAGCAAUAUUACGGUUC has self-splicing fitness (ln) of -2.43

Per the record, GAACAGCAAUAUUACGGCGA has self-splicing fitness (ln) of -0.318

Per the record, GAUUAGCAAUAUUACGCGCC has self-splicing fitness (ln) of -1.2

Per the record, CGGGAGCAAUAUUACGAGCU has self-splicing fitness (ln) of -1.89

Per the record, GGCAAGCAAUAUUACGCGAU has self-splicing fitness (ln) of -2.37

Per the record, CCCAAGCAAUAUUACGUGGC has self-splicing fitness (ln) of -2.8

###

# testMethodNotes: self-splicing fitness, log relative to wild type (ln ratio); higher = more splicing; Tetrahymena group I intron in knt gene, E. coli kanamycin selection, DiMSum; sequences stand for … in CUCUCU…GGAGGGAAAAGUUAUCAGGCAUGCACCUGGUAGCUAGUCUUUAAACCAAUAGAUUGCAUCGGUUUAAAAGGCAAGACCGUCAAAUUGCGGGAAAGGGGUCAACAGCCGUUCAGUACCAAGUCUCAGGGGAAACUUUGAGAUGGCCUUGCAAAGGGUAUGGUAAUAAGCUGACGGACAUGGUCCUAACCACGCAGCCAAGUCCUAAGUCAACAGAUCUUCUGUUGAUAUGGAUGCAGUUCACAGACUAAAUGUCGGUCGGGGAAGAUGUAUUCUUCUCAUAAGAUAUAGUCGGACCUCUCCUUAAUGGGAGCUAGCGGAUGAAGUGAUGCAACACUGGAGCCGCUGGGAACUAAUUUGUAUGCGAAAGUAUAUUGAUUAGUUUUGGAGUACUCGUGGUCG
# measurementSetup: 37 °C
measure: self-splicing fitness (ln)

Answered cases to consult:
UGAGAGCAAUAUUACGAAGG: -1.85
UGCAAGCAAUAUUACGAUAC: -2.24

Per the record, GGCUAGCAAUAUUACGACCG has self-splicing fitness (ln) of -0.188

Per the record, AGCGAGCAAUAUUACGAACG has self-splicing fitness (ln) of -1.5
